- subject of test: mouse FAP (Mus musculus, UniProt P97321)
- Construct: biotinylated His, Avi tag, mouse FAP (26-761, FAP-M82Q5); His; Avi tag (biotinylated); purchased AcroBiosystems FAP-M82Q5
- Sequence (P97321 26-761): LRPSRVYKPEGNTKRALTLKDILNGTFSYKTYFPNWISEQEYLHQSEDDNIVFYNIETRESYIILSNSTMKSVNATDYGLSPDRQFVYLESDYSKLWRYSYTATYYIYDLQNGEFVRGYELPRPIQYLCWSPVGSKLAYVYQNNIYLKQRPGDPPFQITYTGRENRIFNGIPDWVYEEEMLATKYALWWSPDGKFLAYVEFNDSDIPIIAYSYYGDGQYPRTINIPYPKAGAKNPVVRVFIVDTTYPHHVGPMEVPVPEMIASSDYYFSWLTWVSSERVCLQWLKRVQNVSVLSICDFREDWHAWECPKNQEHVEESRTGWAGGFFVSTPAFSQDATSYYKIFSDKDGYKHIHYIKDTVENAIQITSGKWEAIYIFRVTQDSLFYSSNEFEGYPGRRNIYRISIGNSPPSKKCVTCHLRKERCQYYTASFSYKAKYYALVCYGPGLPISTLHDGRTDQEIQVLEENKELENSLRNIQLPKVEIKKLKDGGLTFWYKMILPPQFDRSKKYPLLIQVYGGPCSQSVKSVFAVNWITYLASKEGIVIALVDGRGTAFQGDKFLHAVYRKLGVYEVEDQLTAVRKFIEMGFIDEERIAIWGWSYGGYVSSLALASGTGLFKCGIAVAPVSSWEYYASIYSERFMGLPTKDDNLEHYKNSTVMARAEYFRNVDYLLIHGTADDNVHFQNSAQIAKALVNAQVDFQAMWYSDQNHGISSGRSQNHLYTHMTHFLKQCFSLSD
- method: Enzymatic FAP competition assay (Z-Gly-Pro-AMC fluorescence), mouse FAP
- Format: biochemical
- condition notes: read-out: m. FAP, Enz., IC50
Starred links: 1 amine or outer side, 2 acyl side, 3 side chain; linkers in the order of their positions; H or OH if unused. Non-standard residues stand in square brackets, D forms with d. *: point of attachment. F(4amPEG2NHDOTA-Lu) = lutetium complex of (S)-2,2',2''-(10-(1-(4-(2-amino-2-carboxyethyl)phenyl)-3,12-dioxo-5,8-dioxa-2,11-diazatridecan-13-yl)-1,4,7,10-tetraazacyclododecane-1,4,7-triyl)triacetic acid (Phe with 4-aminomethyl-PEG2-DOTA-Lu), O=C([O-])CN1CCN(CC(=O)[O-])CCN(CC(=O)NCCOCCOCC(=O)NCc2ccc(C[C@H](N[*:1])C(=O)[*:2])cc2)CCN(CC(=O)[O-])CC1.[Lu+3]; F4(amMeBAlaDOTALu) = lutetium complex of (S)-2,2',2''-(10-(2-((3-((4-(2-amino-2-carboxyethyl)benzyl)amino)-3-oxopropyl)(methyl)amino)-2-oxoethyl)-1,4,7,10-tetraazacyclododecane-1,4,7-triyl)triacetic acid (Phe with 4-aminomethyl-N-methyl-βAla, CN(CCC(=O)NCc1ccc(C[C@H](N[*:1])C(=O)[*:2])cc1)C(=O)CN1CCN(CC(=O)[O-])CCN(CC(=O)[O-])CCN(CC(=O)[O-])CC1.[Lu+3]; F(4amPEG2NHDOTA-Ga) = gallium complex of (S)-2,2',2''-(10-(1-(4-(2-amino-2-carboxyethyl)phenyl)-3,12-dioxo-5,8-dioxa-2,11-diazatridecan-13-yl)-1,4,7,10-tetraazacyclododecane-1,4,7-triyl)triacetic acid (Phe with 4-aminomethyl-PEG2-DOTA-Ga), O=C([O-])CN1CCN(CC(=O)[O-])CCN(CC(=O)NCCOCCOCC(=O)NCc2ccc(C[C@H](N[*:1])C(=O)[*:2])cc2)CCN(CC(=O)[O-])CC1.[Ga+3]; F(4amPEG2NHNODAGA-Ga) = gallium complex of 2,2'-(7-(1-(4-((S)-2-amino-2-carboxyethyl)phenyl)-15-carboxy-3,12-dioxo-5,8-dioxa-2,11-diazapentadecan-15-yl)-1,4,7-triazonane-1,4-diyl)diacetic acid (Phe with 4-aminomethyl-PEG2-NODAGA-Ga), O=C([O-])CN1CCN(CC(=O)[O-])CCN(C(CCC(=O)NCCOCCOCC(=O)NCc2ccc(C[C@H](N[*:1])C(=O)[*:2])cc2)C(=O)[O-])CC1.[Ga+3]; F4(amGlyDOTALu) = lutetium complex of (S)-2,2',2''-(10-(2-((2-((4-(2-amino-2-carboxyethyl)benzyl)amino)-2-oxoethyl)amino)-2-oxoethyl)-1,4,7,10-tetraazacyclododecane-1,4,7-triyl)triacetic acid (Phe with 4-aminomethyl-Gly-DOTA-Lu), O=C([O-])CN1CCN(CC(=O)[O-])CCN(CC(=O)NCC(=O)NCc2ccc(C[C@H](N[*:1])C(=O)[*:2])cc2)CCN(CC(=O)[O-])CC1.[Lu+3]; F(4OEtNHDOTA-Lu) = lutetium complex of (S)-2,2',2''-(10-(2-((2-(4-(2-amino-2-carboxyethyl)phenoxy)ethyl)amino)-2-oxoethyl)-1,4,7,10-tetraazacyclododecane-1,4,7-triyl)triacetic acid (Phe with 4-O-ethylamino-DOTA-Lu), O=C([O-])CN1CCN(CC(=O)[O-])CCN(CC(=O)NCCOc2ccc(C[C@H](N[*:1])C(=O)[*:2])cc2)CCN(CC(=O)[O-])CC1.[Lu+3]; F(4OEtNHDOTA-Ga) = gallium complex of (S)-2,2',2''-(10-(2-((2-(4-(2-amino-2-carboxyethyl)phenoxy)ethyl)amino)-2-oxoethyl)-1,4,7,10-tetraazacyclododecane-1,4,7-triyl)triacetic acid (Phe with 4-O-ethylamino-DOTA-Ga), O=C([O-])CN1CCN(CC(=O)[O-])CCN(CC(=O)NCCOc2ccc(C[C@H](N[*:1])C(=O)[*:2])cc2)CCN(CC(=O)[O-])CC1.[Ga+3]; F(4amPEG2NHAAZTA-Lu) = lutetium complex of (S)-2,2'-((6-(1-(4-(2-amino-2-carboxyethyl)phenyl)-3,12-dioxo-5,8-dioxa-2,11-diazahexadecan-16-yl)-1,4-bis(carboxymethyl)-1,4-diazepan-6-yl)azanediyl)diacetic acid (Phe with 4-aminomethyl-PEG2-AAZTA-L; K(COpipzaa) = N6-(4-(carboxymethyl)piperazine-1-carbonyl)-L-lysine, O=C(NCCCC[C@H](N[*:1])C(=O)[*:2])N1CCN(CC(=O)[*:3])CC1; COpipzaa = 4-(carboxymethyl)piperazine-1-carbonyl, O=C(O)CN1CCN(C(=O)*)CC1; F(4OEtNHRDOTAGA-Ga) = Phe with 4-O-ethyl-NH-DOTAGA, Ga complex; hS(Pr) = O-propyl-L-homoserine, CCCOCC[C@H](N[*:1])C(=O)[*:2]; NMeF = CN[C@@H](Cc1ccccc1)C(=O)O; Ahp(2) = CCCCC[C@H](N)C(=O)O
IC50 values by entry
readout type: IC50

{"substance": "Gly-Gly-NMePhe-F(4amPEG2NHDOTA-Ga)-Ahp-Trp-Gly-Tyr-Asp-D-Pro (cyclo(GG[NMeF][F(4amPEG2NHDOTA-Ga)][Ahp(2)]WGYD[dP]); also: Ga complex) [Example C49]", "subject of test": "mouse FAP (Mus musculus, UniProt P97321)", "result": "0.016 nM"}
{"substance": "hSer-Gly-NMe3PyA-F(4amPEG2NHDOTA-Lu)-hS(Pr)-W7N-Gly-K(COpipzaa)-Asp-D-Pro [Example C6]", "subject of test": "mouse FAP (Mus musculus, UniProt P97321)", "result": "0.049 nM"}
{"substance": "Gly-Gly-NMePhe-F(4OEtNHRDOTAGA-Ga)-Ahp-Trp-Gly-Tyr-Asp-D-Pro (cyclo(GG[NMeF][F(4OEtNHRDOTAGA-Ga)][Ahp(2)]WGYD[dP]); also: Ga complex of DOTAGA) [Example C38]", "subject of test": "mouse FAP (Mus musculus, UniProt P97321)", "result": "0.048 nM"}
{"substance": "Glu-Gly-NMePhe-F(4amPEG2NHDOTA-Lu)-hS(Pr)-Trp-Gly-K(COpipzaa)-Asp-D-Pro (cyclo(EG[NMeF][F(4amPEG2NHDOTA-Lu)][hS(Pr)]WG[K(COpipzaa)]D[dP]); also: Lu complex of DOTA) [Example C5]", "subject of test": "mouse FAP (Mus musculus, UniProt P97321)", "result": "0.049 nM"}
{"substance": "Gly-Gly-NMePhe-F(4amPEG2NHAAZTA-Lu)-hS(Pr)-Trp-Gly-K(COpipzaa)-Asp-D-Pro (cyclo(GG[NMeF][F(4amPEG2NHAAZTA-Lu)][hS(Pr)]WGK(COpipzaa)D[dP]); also: Lu complex) [Example C32]", "subject of test": "mouse FAP (Mus musculus, UniProt P97321)", "result": "0.044 nM"}
{"substance": "Gly-Gly-NMePhe-F(4OEtNHDOTA-Lu)-Ahp-Trp-Gly-Tyr-Asp-D-Pro (cyclo(GG[NMeF][F(4OEtNHDOTA-Lu)][Ahp(2)]WGYD[dP]); also: Lu complex of DOTA) [Example C23]", "subject of test": "mouse FAP (Mus musculus, UniProt P97321)", "result": "0.061 nM"}
{"substance": "Gly-Gly-NMePhe-F4(amMeBAlaDOTALu)-Ahp-Trp-Gly-Tyr-Asp-D-Pro (cyclo(GG[NMeF][F4(amMeBAlaDOTALu)][Ahp(2)]WGYD[dP]); also: Lu complex) [Example C11]", "subject of test": "mouse FAP (Mus musculus, UniProt P97321)", "result": "0.024 nM"}
{"substance": "Gly-Gly-NMePhe-F(4OEtNHDOTA-Ga)-Ahp-Trp-Gly-Tyr-Asp-D-Pro (cyclo(GG[NMeF][F(4OEtNHDOTA-Ga)][Ahp(2)]WGYD[dP]); also: Ga complex of DOTA) [Example C51]", "subject of test": "mouse FAP (Mus musculus, UniProt P97321)", "result": "0.058 nM"}
{"substance": "Gly-Gly-NMePhe-F(4amPEG2NHNODAGA-Ga)-hS(Pr)-Trp-Gly-K(COpipzaa)-Asp-D-Pro (cyclo(GG[NMeF][F(4amPEG2NHNODAGA-Ga)][hS(Pr)]WGK(COpipzaa)D[dP]); also: Ga complex) [Example C40]", "subject of test": "mouse FAP (Mus musculus, UniProt P97321)", "result": "0.019 nM"}
{"substance": "Gly-Gly-NMePhe-F4(amGlyDOTALu)-Ahp-Trp-Gly-Tyr-Asp-D-Pro (cyclo(GG[NMeF][F4(amGlyDOTALu)][Ahp(2)]WGYD[dP]); also: Lu complex) [Example C9]", "subject of test": "mouse FAP (Mus musculus, UniProt P97321)", "result": "0.024 nM"}
{"substance": "Gly-Gly-NMePhe-F(4amPEG2NHDOTA-Lu)-Ahp-Trp-Gly-K(COpipzaa)-Asp-D-Pro (cyclo(GG[NMeF][F(4amPEG2NHDOTA-Lu)][Ahp(2)]WGK(COpipzaa)D[dP]); also: Lu complex) [Example C13]", "subject of test": "mouse FAP (Mus musculus, UniProt P97321)", "result": "0.011 nM"}
